# experimentalSystem: UniProt P53341
# Sequence (P53341 whole entry): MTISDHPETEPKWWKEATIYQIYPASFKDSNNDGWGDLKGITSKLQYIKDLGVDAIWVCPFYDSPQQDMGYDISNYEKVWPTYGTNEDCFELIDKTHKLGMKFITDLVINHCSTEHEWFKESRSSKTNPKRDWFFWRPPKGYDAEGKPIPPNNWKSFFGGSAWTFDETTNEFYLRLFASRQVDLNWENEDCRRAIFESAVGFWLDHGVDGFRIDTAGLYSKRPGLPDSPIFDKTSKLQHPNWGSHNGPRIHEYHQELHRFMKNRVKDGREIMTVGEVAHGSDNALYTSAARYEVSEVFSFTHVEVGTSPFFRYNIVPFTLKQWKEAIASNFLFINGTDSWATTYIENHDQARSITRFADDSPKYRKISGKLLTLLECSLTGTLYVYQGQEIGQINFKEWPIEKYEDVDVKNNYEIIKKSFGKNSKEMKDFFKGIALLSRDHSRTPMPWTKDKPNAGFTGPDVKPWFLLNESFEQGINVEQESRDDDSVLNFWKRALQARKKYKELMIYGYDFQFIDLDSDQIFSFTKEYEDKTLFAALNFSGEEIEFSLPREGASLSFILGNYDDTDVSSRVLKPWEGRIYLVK
experimentalReadout: pIC50
# reply with the number alone; pIC50 is -log10 of concentration in mol/L

### Prompt Requested read-out pIC50, target or system UniProt P53341, entry Oc1cc(O)cc(/C=C/c2ccc(O)cc2O)c1 [Oxyresveratrol, trans-3,5,2′,4′-tetrahydroxystilbene]
### Response 3.69
